appliedConditions: calculated at brain blood flow […], with rat serum fu
readout: Brain vascular extraction (total) (%)
A number alone suffices; assume %.

COc1ccc2c(c1)c(CC(=O)O)c(C)n2C(=O)c1ccc(Cl)cc1 [Indomethacin] yielded Brain vascular extraction (total) of 0.18

Cc1c(I)c(=O)n(-c2ccccc2)n1C [Iodoantipyrine] yielded Brain vascular extraction (total) of 96.1

CNC(N)=O [Methylurea] yielded Brain vascular extraction (total) of 0.79

CN(C)CCCN1c2ccccc2Sc2ccc(Cl)cc21 [Chlorpromazine] yielded Brain vascular extraction (total) of 36.6

CNCCC(Oc1ccc(C(F)(F)F)cc1)c1ccccc1 (centres unmarked) [Fluoxetine] yielded Brain vascular extraction (total) of 21.3

O=C(O)c1cccnc1C(=O)O [Quinolinic acid] yielded Brain vascular extraction (total) of 0.0071

CC(C)NCC(O)COc1cccc2ccccc12 (centres unmarked) [Propranolol] yielded Brain vascular extraction (total) of 30.5

CCO [Ethanol] yielded Brain vascular extraction (total) of 81.4
